target: SRC SH3 domain (aa 77-140) (Homo sapiens, UniProt P12931)
Sequence (P12931 77-140 limits assumed): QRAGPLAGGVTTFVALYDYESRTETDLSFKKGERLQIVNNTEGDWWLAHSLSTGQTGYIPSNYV
pKd: −log10 of the molar value. Peptide text beside a SMILES is read from it.
Attribute measured: pKd

[
  {
    "Compound": "CC[C@H](C)[C@H](N)C(=O)N[C@@H](C)C(=O)NCC(=O)N1CCC[C@H]1C(=O)N1CCC[C@H]1C(=O)N[C@H](C(=O)N1CCC[C@H]1C(=O)N1CCC[C@H]1C(=O)N[C@@H](CCCNC(=N)N)C(=O)N[C@@H](CCC(N)=O)C(=O)N[C@@H](CO)C(=O)O)C(C)C [Peptide P9] (H-IAGPPVPPRQS-OH)",
    "Target desc": "SRC SH3 domain (aa 77-140) (Homo sapiens, UniProt P12931)",
    "Test value": "< 3.70"
  }
]

---

molecular target: ABI1 SH3 domain (aa 446-505) (Homo sapiens, UniProt Q8IZP0)
Sequence (Q8IZP0 446-505): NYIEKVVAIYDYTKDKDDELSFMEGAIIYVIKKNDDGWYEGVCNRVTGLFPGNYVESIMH
pKd: −log10 of the molar value. Peptide text beside a SMILES is read from it.

[
  {
    "Compound": "CC[C@H](C)[C@H](NC(=O)[C@H](C)NC(=O)[C@@H]1CCCN1C(=O)[C@@H]1CCCN1C(=O)[C@H](CO)NC(=O)[C@H](CC(=O)O)NC(=O)[C@@H](N)CC(C)C)C(=O)N1CCC[C@H]1C(=O)N1CCC[C@H]1C(=O)N[C@@H](CCCNC(=N)N)C(=O)N[C@@H](CCC(N)=O)C(=O)N1CCC[C@H]1C(=O)N[C@H](C(=O)N[C@@H](CO)C(=O)N[C@@H](CCCCN)C(=O)O)[C@@H](C)O [Peptide P4] (H-LDSPPAIPPRQPTSK-OH)",
    "pKd": 4.61
  },
  {
    "Compound": "CC[C@H](C)[C@H](N)C(=O)N[C@@H](C)C(=O)NCC(=O)N1CCC[C@H]1C(=O)N1CCC[C@H]1C(=O)N[C@H](C(=O)N1CCC[C@H]1C(=O)N1CCC[C@H]1C(=O)N[C@@H](CCCNC(=N)N)C(=O)N[C@@H](CCC(N)=O)C(=O)N[C@@H](CO)C(=O)O)C(C)C [Peptide P9] (H-IAGPPVPPRQS-OH)",
    "pKd": "< 3.70"
  },
  {
    "Compound": "CC(C)C[C@H](NC(=O)[C@H](Cc1c[nH]cn1)NC(=O)[C@H](CC(C)C)NC(=O)[C@@H]1CCCN1C(=O)[C@H](CO)NC(=O)[C@H](CO)NC(=O)[C@@H](N)CO)C(=O)N[C@@H](CCC(N)=O)C(=O)N1CCC[C@H]1C(=O)N1CCC[C@H]1C(=O)N1CCC[C@H]1C(=O)N[C@@H](CC(C)C)C(=O)NCC(=O)N[C@@H](CCCCN)C(=O)N[C@@H](CCCCN)C(=O)O [Peptide P6] (H-SSSPLHLQPPPLGKK-OH; N-terminus and C-terminus assumed)",
    "pKd": "< 3.70"
  },
  {
    "Compound": "CC(C)[C@H](N)C(=O)N1CCC[C@H]1C(=O)N[C@H](C(=O)N1CCC[C@H]1C(=O)N1CCC[C@H]1C(=O)N1CCC[C@H]1C(=O)N[C@H](C(=O)N1CCC[C@H]1C(=O)N1CCC[C@H]1C(=O)N[C@@H](CCCNC(=N)N)C(=O)N[C@@H](CCCNC(=N)N)C(=O)N[C@@H](CCCNC(=N)N)C(=O)O)C(C)C)C(C)C [RP1, reference compound]",
    "pKd": "< 3.70"
  },
  {
    "Compound": "CC[C@H](C)[C@H](NC(=O)[C@H](Cc1c[nH]cn1)NC(=O)[C@@H](N)CCC(N)=O)C(=O)N1CCC[C@H]1C(=O)N[C@@H](CCCCN)C(=O)N[C@@H](CC(C)C)C(=O)N1CCC[C@H]1C(=O)N1CCC[C@H]1C(=O)N[C@@H](CCCCN)C(=O)N[C@H](C(=O)N[C@@H](Cc1ccc(O)cc1)C(=O)O)[C@@H](C)O [Peptide P10] (H-QHIPKLPPKTY-OH; N-terminus and C-terminus assumed)",
    "pKd": "< 3.70"
  }
]

---

pKd values by entry
Target: NPHP1 SH3 domain (Homo sapiens, UniProt O15259)
Sequence (O15259 152-212 limits assumed): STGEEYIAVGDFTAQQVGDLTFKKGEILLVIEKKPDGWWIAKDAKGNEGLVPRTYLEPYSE
pKd: −log10 of the molar value. Peptide text beside a SMILES is read from it.
Attribute measured: pKd

[
  {
    "Molecule": "CC[C@H](C)[C@H](NC(=O)[C@H](C)NC(=O)[C@@H]1CCCN1C(=O)[C@@H]1CCCN1C(=O)[C@H](CO)NC(=O)[C@H](CC(=O)O)NC(=O)[C@@H](N)CC(C)C)C(=O)N1CCC[C@H]1C(=O)N1CCC[C@H]1C(=O)N[C@@H](CCCNC(=N)N)C(=O)N[C@@H](CCC(N)=O)C(=O)N1CCC[C@H]1C(=O)N[C@H](C(=O)N[C@@H](CO)C(=O)N[C@@H](CCCCN)C(=O)O)[C@@H](C)O [Peptide P4] (H-LDSPPAIPPRQPTSK-OH)",
    "Target desc": "NPHP1 SH3 domain (Homo sapiens, UniProt O15259)",
    "Test value": "< 3.70"
  },
  {
    "Molecule": "CC(C)[C@H](N)C(=O)N1CCC[C@H]1C(=O)N[C@H](C(=O)N1CCC[C@H]1C(=O)N1CCC[C@H]1C(=O)N1CCC[C@H]1C(=O)N[C@H](C(=O)N1CCC[C@H]1C(=O)N1CCC[C@H]1C(=O)N[C@@H](CCCNC(=N)N)C(=O)N[C@@H](CCCNC(=N)N)C(=O)N[C@@H](CCCNC(=N)N)C(=O)O)C(C)C)C(C)C [RP1, reference compound]",
    "Target desc": "NPHP1 SH3 domain (Homo sapiens, UniProt O15259)",
    "Test value": "< 3.70"
  }
]

---

target: NCK1-2 SH3 domain (aa 106-165) (Homo sapiens, UniProt P16333); construct: 106-165; GST (N); made in house; host or cells: Escherichia coli CodonPlus, Rosetta, BL21(DE3); test: Fluorescence polarization SH3 domain-PRP binding; settings: FP, 0.2 µM fluorescein-labeled peptide, SH3 domain 0-200 µM, Tris/HCl pH 7.5, 25 °C, quadratic fit, read-out: Kd
pKd: −log10 of the molar value. Peptide text beside a SMILES is read from it.

[
  {
    "Molecule": "CC(C)C[C@H](NC(=O)[C@@H](NC(=O)[C@@H](N)C(C)C)[C@@H](C)O)C(=O)N1CCC[C@H]1C(=O)N[C@@H](Cc1c[nH]cn1)C(=O)NCC(=O)N1CCC[C@H]1C(=O)N[C@@H](CCCNC(=N)N)C(=O)N[C@@H](CO)C(=O)N[C@@H](C)C(=O)O [Peptide P2] (H-VTLPHGPRSA-OH)",
    "pKd": "< 3.70"
  },
  {
    "Molecule": "CC(C)C[C@H](NC(=O)[C@@H]1CCCN1C(=O)[C@@H](NC(=O)[C@H](CCCNC(=N)N)NC(=O)[C@@H]1CCCN1C(=O)[C@H](CO)NC(=O)[C@H](CC(N)=O)NC(=O)[C@@H]1CCCN1C(=O)[C@H](C)NC(=O)[C@@H](N)CO)[C@@H](C)O)C(=O)N[C@H](C(=O)N1CCC[C@H]1C(=O)N1CCC[C@H]1C(=O)N1CCC[C@H]1C(=O)N[C@@H](C)C(=O)N[C@@H](CO)C(=O)O)[C@@H](C)O [Peptide P1] (H-SAPNSPRTPLTPPPAS-OH)",
    "pKd": "< 3.70"
  },
  {
    "Molecule": "CC(C)C[C@H](NC(=O)[C@H](Cc1c[nH]cn1)NC(=O)[C@H](CC(C)C)NC(=O)[C@@H]1CCCN1C(=O)[C@H](CO)NC(=O)[C@H](CO)NC(=O)[C@@H](N)CO)C(=O)N[C@@H](CCC(N)=O)C(=O)N1CCC[C@H]1C(=O)N1CCC[C@H]1C(=O)N1CCC[C@H]1C(=O)N[C@@H](CC(C)C)C(=O)NCC(=O)N[C@@H](CCCCN)C(=O)N[C@@H](CCCCN)C(=O)O [Peptide P6] (H-SSSPLHLQPPPLGKK-OH; N-terminus and C-terminus assumed)",
    "pKd": "< 3.70"
  }
]

---

Target: RIMBP3B-1 SH3 domain (aa 832-899) (Homo sapiens, UniProt A6NNM3)
Sequence (A6NNM3 832-899): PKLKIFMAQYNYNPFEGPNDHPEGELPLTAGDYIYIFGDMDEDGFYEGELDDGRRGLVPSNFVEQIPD
pKd: −log10 of the molar value. Peptide text beside a SMILES is read from it.

[
  {
    "Compound": "CC[C@H](C)[C@H](NC(=O)[C@H](Cc1c[nH]cn1)NC(=O)[C@@H](N)CCC(N)=O)C(=O)N1CCC[C@H]1C(=O)N[C@@H](CCCCN)C(=O)N[C@@H](CC(C)C)C(=O)N1CCC[C@H]1C(=O)N1CCC[C@H]1C(=O)N[C@@H](CCCCN)C(=O)N[C@H](C(=O)N[C@@H](Cc1ccc(O)cc1)C(=O)O)[C@@H](C)O [Peptide P10] (H-QHIPKLPPKTY-OH; N-terminus and C-terminus assumed)",
    "pKd": "< 3.70"
  },
  {
    "Compound": "CC(C)C[C@H](NC(=O)[C@H](Cc1c[nH]cn1)NC(=O)[C@H](CC(C)C)NC(=O)[C@@H]1CCCN1C(=O)[C@H](CO)NC(=O)[C@H](CO)NC(=O)[C@@H](N)CO)C(=O)N[C@@H](CCC(N)=O)C(=O)N1CCC[C@H]1C(=O)N1CCC[C@H]1C(=O)N1CCC[C@H]1C(=O)N[C@@H](CC(C)C)C(=O)NCC(=O)N[C@@H](CCCCN)C(=O)N[C@@H](CCCCN)C(=O)O [Peptide P6] (H-SSSPLHLQPPPLGKK-OH; N-terminus and C-terminus assumed)",
    "pKd": "< 3.70"
  },
  {
    "Compound": "CC(C)C[C@H](NC(=O)[C@@H](NC(=O)[C@@H](N)C(C)C)[C@@H](C)O)C(=O)N1CCC[C@H]1C(=O)N[C@@H](Cc1c[nH]cn1)C(=O)NCC(=O)N1CCC[C@H]1C(=O)N[C@@H](CCCNC(=N)N)C(=O)N[C@@H](CO)C(=O)N[C@@H](C)C(=O)O [Peptide P2] (H-VTLPHGPRSA-OH)",
    "pKd": 4.68
  },
  {
    "Compound": "CC(C)C[C@H](NC(=O)[C@@H]1CCCN1C(=O)[C@@H]1CCCN1C(=O)[C@H](CO)NC(=O)[C@@H]1CCCN1C(=O)[C@H](CC(C)C)NC(=O)[C@H](Cc1c[nH]cn1)NC(=O)[C@@H](N)CCCNC(=N)N)C(=O)N[C@H](C(=O)N[C@@H](CCC(N)=O)C(=O)O)[C@@H](C)O [Peptide P8] (H-RHLPSPPLTQ-OH; N-terminus and C-terminus assumed)",
    "pKd": "< 3.70"
  },
  {
    "Compound": "CC[C@H](C)[C@H](NC(=O)[C@H](C)NC(=O)[C@@H]1CCCN1C(=O)[C@@H]1CCCN1C(=O)[C@H](CO)NC(=O)[C@H](CC(=O)O)NC(=O)[C@@H](N)CC(C)C)C(=O)N1CCC[C@H]1C(=O)N1CCC[C@H]1C(=O)N[C@@H](CCCNC(=N)N)C(=O)N[C@@H](CCC(N)=O)C(=O)N1CCC[C@H]1C(=O)N[C@H](C(=O)N[C@@H](CO)C(=O)N[C@@H](CCCCN)C(=O)O)[C@@H](C)O [Peptide P4] (H-LDSPPAIPPRQPTSK-OH)",
    "pKd": "< 3.70"
  }
]
